target: Thymidine kinase (Human herpesvirus 1 (strain SC16) (HHV-1) (Human herpes simplex virus1)); test: Binding affinity towards HSV-1 thymidine kinase
Sequence (P06479 whole entry): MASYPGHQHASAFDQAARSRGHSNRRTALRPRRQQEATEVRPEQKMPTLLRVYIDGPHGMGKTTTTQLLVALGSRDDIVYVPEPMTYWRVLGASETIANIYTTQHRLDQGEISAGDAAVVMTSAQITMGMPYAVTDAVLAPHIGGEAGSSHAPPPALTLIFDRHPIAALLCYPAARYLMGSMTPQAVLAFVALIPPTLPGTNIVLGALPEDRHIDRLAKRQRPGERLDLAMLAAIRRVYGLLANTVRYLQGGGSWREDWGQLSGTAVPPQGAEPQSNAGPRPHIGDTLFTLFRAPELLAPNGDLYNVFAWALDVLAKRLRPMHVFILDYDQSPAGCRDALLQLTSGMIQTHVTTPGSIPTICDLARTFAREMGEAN
assay metric: log10(IC50) (log10 of the value in µM)
Use the decimal logarithm of IC50 (µM).

> print(dat)
                               smiles.record  observed
 1  O=c1[nH]c(=O)n([C@H]2C[C@H](O)[C@@H](CO)O2)cc1-c1ccc(Cl)o1      1.45
 2  O=c1[nH]c(=O)n([C@H]2C[C@H](O)[C@@H](CO)O2)cc1-c1ccc(Br)s1      0.54
 3  Cc1ccc(-c2cn([C@H]3C[C@H](O)[C@@H](CO)O3)c(=O)[nH]c2=O)s1      0.36
 4  O=c1[nH]c(=O)n([C@H]2C[C@H](O)[C@@H](CO)O2)cc1-c1ccc(Cl)s1      0.36
 5  O=c1[nH]c(=O)n([C@H]2C[C@H](O)[C@@H](CO)O2)cc1-c1sc(Br)cc1Br      1.79
 6  O=c1[nH]c(=O)n([C@H]2C[C@H](O)[C@@H](CO)O2)cc1-c1ccc(Br)o1      1.71
 7  O=c1[nH]c(=O)n([C@H]2C[C@H](O)[C@@H](CO)O2)cc1-c1cscc1Br      2.16
 8  O=c1[nH]c(=O)n([C@H]2C[C@H](O)[C@@H](CO)O2)cc1-c1cc(Br)no1      1.53
 9  O=c1[nH]c(=O)n([C@H]2C[C@H](O)[C@@H](CO)O2)cc1-c1ccno1      1.56
10  O=c1[nH]c(=O)n([C@H]2C[C@H](O)[C@@H](CO)O2)cc1-c1cccs1      0.38

Please state log10(IC50) for every compound in the list that follows.
1. O=c1[nH]c(=O)n([C@H]2C[C@H](O)[C@@H](CO)O2)cc1-c1ccoc1
2. O=c1[nH]c(=O)n([C@H]2C[C@H](O)[C@@H](CO)O2)cc1-c1sccc1Br
3. O=c1[nH]c(=O)n([C@H]2C[C@H](O)[C@@H](CO)O2)cc1-c1ccns1

(A)
[0.18, 1.79, 0.49]

Please state log10(IC50) for every compound in the list that follows.
1. O=c1[nH]c(=O)n([C@H]2C[C@H](O)[C@@H](CO)O2)cc1-c1ccco1
2. O=c1[nH]c(=O)n([C@H]2C[C@H](O)[C@@H](CO)O2)cc1-c1ccsc1
3. O=c1[nH]c(=O)n([C@H]2C[C@H](O)[C@@H](CO)O2)cc1-c1ccccc1

(A)
0.46
0.60
2.01
